assay: Microsome incubation, metabolic stability (mouse); assay type: in vitro ADME; settings: maximal achievable bioavailability = 1-E, extrapolated from intrinsic clearance
quantity kind: MAB (mouse) (%)

input: Data request, read-out MAB (mouse), for CC(O)(C(=O)NCC(F)(F)C(F)(F)F)C(=O)N[C@H]1CN(CCC(F)(F)F)c2ccccc2NC1=O (single isomer, unassigned) [Example 5]
output: 10.8

[A] CC(O)(C(=O)NCC(F)(F)C(F)(F)F)C(=O)N[C@H]1CN(CC(F)(F)F)c2ccc(F)cc2NC1=O (single isomer, unassigned) [Example 3]
[B] CC(O)(C(=O)NCC(F)(F)C(F)(F)F)C(=O)N[C@H]1CN(CCO)c2ccccc2N(CC(F)(F)F)C1=O (single isomer, unassigned) [Example 8]
input: Between these two entries, A and B , state which has the higher MAB (mouse). Answer = label.
output: B
(B: 37.5%, A: 20.1%)

[P] CC(O)(C(=O)NCC(F)(F)C(F)(F)F)C(=O)N[C@H]1CN(C(=O)OCC(F)(F)F)c2ccccc2N(CC(F)(F)F)C1=O (single isomer, unassigned) [Example 11]
[Q] CC(O)(C(=O)NCC(F)(F)C(F)(F)F)C(=O)N[C@H]1CN(CC(F)(F)F)c2ccccc2NC1=O (single isomer, unassigned) [Example 4]
input: Could you kindly indicate whether P or Q has the higher MAB (mouse) value? Please indicate the selected item by its label.
output: P

[I] CC(O)(C(=O)NCC(F)(F)C(F)(F)F)C(=O)N[C@H]1CN(C(=O)OCCCC(F)(F)F)c2ccccc2N(CCCC(F)(F)F)C1=O (single isomer, unassigned) [Example 13]
[II] CC(O)(C(=O)NCC(F)(F)C(F)(F)F)C(=O)N[C@H]1CN(CCCC(F)(F)F)c2ccccc2NC1=O (single isomer, unassigned) [Example 6]
input: Compare I and II and name the one whose reported MAB (mouse) is smaller. Lab log: write the label of the selected item as the result.
output: II
(II: 25.0%, I: 100%)

----------
Experiment: Microsome incubation, metabolic stability (human)
Assay type: in vitro ADME
Details: human; maximal achievable bioavailability = 1-E, extrapolated from intrinsic clearance
From the text: The compounds of formula I of the present invention are further characterized by high metabolic stability. This parameter is a prerequisite for good bioavailability, which is necessary to obtain medicaments with acceptable in-vivo activity. The metabolic stability has been tested by the following method: […]
quantity kind: MAB (human) (%)

input: Sample CC(O)(C(=O)NCC(F)(F)C(F)(F)F)C(=O)N[C@H]1CN(C(=O)OCC(F)(F)F)c2ccccc2N(CC(F)(F)F)C1=O (single isomer, unassigned) [Example 11] — what was its MAB (human)?
output: 100.0

input: So what's the measured MAB (human) for this one? CC(O)(C(=O)NCC(F)(F)C(F)(F)F)C(=O)N[C@H]1CN(C(=O)OCC(F)(F)F)c2ccccc2N(CCO)C1=O (single isomer, unassigned) [Example 12]
output: 84.3

input: Quick check: MAB (human) of CC(O)(C(=O)NCC(F)(F)C(F)(F)F)C(=O)N[C@H]1CN(CCO)c2ccccc2N(CC(F)(F)F)C1=O (single isomer, unassigned) [Example 8] ?
output: 100.0

----------
test: Microsome incubation, metabolic stability (human); type: in vitro ADME; conditions: pH 7.4; human liver microsomes 2.0 mg prot/mL, test compound 10 μM, 37° C.; read-out: Intrinsic clearance (human)
quantity kind: microsomal CLint at 10 μM (µL/min/mg)

# count of solved cases: 5
input: So what does the record say about microsomal CLint at 10 μM for CC(O)(C(=O)NCC(F)(F)C(F)(F)F)C(=O)N[C@H]1CN(C(=O)OCCCC(F)(F)F)c2ccccc2N(CCCC(F)(F)F)C1=O (single isomer, unassigned) [Example 13] ?
output: 2.2

input: Name the recorded microsomal CLint at 10 μM for CC(O)(C(=O)NCC(F)(F)C(F)(F)F)C(=O)N[C@H]1CN(CC(F)(F)F)c2ccccc2NC1=O (single isomer, unassigned) [Example 4] .
output: 12.5

input: Name the recorded microsomal CLint at 10 μM for CC(O)(C(=O)NCC(F)(F)C(F)(F)F)C(=O)N[C@H]1CN(CCCC(F)(F)F)c2ccccc2NC1=O (single isomer, unassigned) [Example 6] .
output: 15.9

input: State the recorded microsomal CLint at 10 μM for this entry: CC(O)(C(=O)NCC(F)(F)C(F)(F)F)C(=O)N[C@H]1CN(C(=O)OCC(F)(F)F)c2ccccc2N(CCO)C1=O (single isomer, unassigned) [Example 12]
output: 2.9

input: Field request: microsomal CLint at 10 μM | item: CC(O)(C(=O)NCC(F)(F)C(F)(F)F)C(=O)N[C@H]1CN(CCC(F)(F)F)c2ccccc2NC1=O (single isomer, unassigned) [Example 5]
output: 18.6

[P] CC(O)(C(=O)NCC(F)(F)C(F)(F)F)C(=O)N[C@H]1CN(C(=O)OCCO)c2ccccc2N(CCO)C1=O (single isomer, unassigned) [Example 14]
[Q] CC(O)(C(=O)NCC(F)(F)C(F)(F)F)C(=O)N[C@H]1CN(CC(F)(F)F)c2ccccc2N(CCO)C1=O (single isomer, unassigned) [Example 9]
[R] CC(O)(C(=O)NCC(F)(F)C(F)(F)F)C(=O)N[C@H]1CN(C(=O)OCC(F)(F)F)c2cc(F)c(F)cc2NC1=O (single isomer, unassigned) [Example 1]
[S] CC(O)(C(=O)NCC(F)(F)C(F)(F)F)C(=O)N[C@H]1CN(CCO)c2ccccc2NC1=O (mixture of isomers) [Example 7]
input: Arrange the 4 compounds from largest to smallest microsomal CLint at 10 μM. Could you list the labels in the order requested?
output: P, S, Q, R
